Source of measurements: ChEMBL document CHEMBL1152384

tested.on: Prothrombin (Homo sapiens) (UniProt P00734)
test.method.notes: Inhibition of human thrombin assessed as residual activity at < 4.3 mM by spectrophotometry
Activity calls are given as the source filed them. The calls are words filed in the database; no cut-off is given here.
parameter.measured: Activity

Consider the worked cases shown below.
COc1cc2oc(C)c(COS(=O)(=O)O)c2cc1OS(=O)(=O)O	inactive
CCOC(=O)c1c(C)oc2cc(O)c(O)cc12	inactive
CCOC(=O)c1c(C)oc2cc(OC)c(OS(=O)(=O)O)cc12	inactive
CCOC(=O)c1c(C)oc2cc(O)c(OC)cc12	inactive
CCOC(=O)CCc1c(C)oc2cc(OC)c(OS(=O)(=O)O)cc12	inactive

Report Activity for CCOC(=O)c1c(C)oc2cc(OC)c(O)cc12 please. inactive
